Reference source for all entries: patent US11306064B2

# Test target: Human LBAT (Homo sapiens, UniProt Q14973)
# Construct: kept under Geneticin selection
# Sequence (Q14973 whole entry): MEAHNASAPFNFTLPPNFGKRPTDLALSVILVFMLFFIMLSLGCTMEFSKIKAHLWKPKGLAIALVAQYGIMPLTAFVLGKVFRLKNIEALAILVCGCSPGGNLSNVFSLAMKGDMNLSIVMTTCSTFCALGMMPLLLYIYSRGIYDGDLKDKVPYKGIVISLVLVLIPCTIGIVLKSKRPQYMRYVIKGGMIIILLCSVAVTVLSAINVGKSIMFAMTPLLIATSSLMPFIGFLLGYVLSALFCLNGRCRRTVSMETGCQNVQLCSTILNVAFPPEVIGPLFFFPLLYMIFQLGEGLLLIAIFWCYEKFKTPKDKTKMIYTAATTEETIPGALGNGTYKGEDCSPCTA
# Assay protocol: LBAT (h/m) assay: 3H-taurocholic acid uptake in human LBAT-overexpressing cells
# Measurement conditions: 0.3 μM 3H-taurocholic acid and 7.5 μM cold taurocholic acid, 20 minutes, read-out: hLBAT IC50
Property label: IC50 (nM)
Kindly answer with a numeric value in nM, unit omitted.

Please review the entries below; each comes with its answer.
Compound: CCC1(CC)CN(c2ccccc2)c2cc(Br)c(O/C=C(\F)C(=O)O)cc2S(=O)(=O)C1
IC50 (nM): 37
//
Compound: CCCC[C@]1(CC)CN(c2ccccc2)c2cc(N(C)C)c(O/C=C(\F)C(=O)O)cc2S(=O)(=O)C1 (single isomer, unassigned)
IC50 (nM): 33
//
Compound: CCCCC1(CCCC)CN(c2ccccc2)c2ccc(O/C=C(\F)C(=O)O)cc2S(=O)(=O)C1
IC50 (nM): 201
//
Compound: CCCCC1(CCCC)CN(c2ccc(NC(=O)CC(C)(C)C)cc2)c2cc(SC)c(O/C=C/C(=O)O)cc2S(=O)(=O)C1
IC50 (nM): 107

Using the record for CCCCC1(CCCC)CN(c2ccccc2)c2cc(SC)c(O/C=C(\F)C(=O)O)cc2S(=O)(=O)N1C , report its IC50.
68

Input CCCCC1(CC)CN(c2ccccc2)c2cc(Br)c(O/C=C/C(=O)O)cc2S(=O)(=O)C1 (single isomer, unassigned) [Example 6]
156

Next: CCCCC1(CC)CN(c2ccccc2)c2cc(N(C)C)c(O/C=C(\F)C(=O)O)cc2S(=O)(=O)C1 (stereo not shown)
5.9

---

# Test target: Human ASBT (Homo sapiens)
# Construct: kept under Puromycin selection
# Sequence (Q12908 whole entry): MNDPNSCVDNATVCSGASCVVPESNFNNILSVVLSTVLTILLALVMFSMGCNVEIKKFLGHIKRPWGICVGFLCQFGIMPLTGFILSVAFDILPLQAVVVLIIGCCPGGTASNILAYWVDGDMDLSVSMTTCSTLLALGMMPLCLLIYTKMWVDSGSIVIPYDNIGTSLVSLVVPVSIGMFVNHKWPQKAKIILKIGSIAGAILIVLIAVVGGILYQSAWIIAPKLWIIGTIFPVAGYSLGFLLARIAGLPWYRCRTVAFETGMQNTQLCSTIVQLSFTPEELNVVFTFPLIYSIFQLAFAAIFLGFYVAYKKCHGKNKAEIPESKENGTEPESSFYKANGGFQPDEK
# Assay protocol: ASBT (h/m) assay: 3H-taurocholic acid uptake in human ASBT-overexpressing cells
# Measurement conditions: 0.25 μM 3H-taurocholic acid and 5 μM cold taurocholic acid, 20 minutes, read-out: hASBT IC50
Attribute: pIC50
// pIC50 is dimensionless: -log10 of concentration (M)

Below, each entry is followed by its recorded pIC50 result.
Compound: CCCCC1(CCCC)CN(c2ccccc2)c2cc(SC)c(O/C=C/C(=O)O)cc2S(=O)(=O)C1
pIC50: 7.15

Compound: CCCCC1(CC)CN(c2ccccc2)c2cc(SC)c(O/C=C(\F)C(=O)O)cc2S(=O)(=O)C1 (single isomer, unassigned) [Example 43]
pIC50: 7.68

Compound: CCCC[C@@]1(CC)CN(c2ccccc2)c2cc(SC)c(O/C=C/C(=O)O)cc2S(=O)(=O)N1 (single isomer, unassigned)
pIC50: 7.62

Compound: CCCCC1(CCCC)CN(c2ccccc2)c2cc(SC)c(O/C(C)=C/C(=O)O)cc2S(=O)(=O)N1
pIC50: 7.74

Compound: CCCC[C@@]1(CC)CN(c2ccccc2)c2cc(F)c(O/C=C/C(=O)O)cc2S(=O)(=O)C1 (single isomer, unassigned)
pIC50: 6.49

Compound: CCCCC1(CCCC)CN(c2ccccc2)c2ccc(O/C=C(\F)C(=O)O)cc2S(=O)(=O)C1
pIC50: 5.84

Moving on to the next compound.
// lookup pIC50 for CCCCC1(CC)CN(c2ccccc2)c2cc(SC)c(O/C=C/C(=O)O)cc2S(=O)(=O)N1 (racemic)
7.39

---

# Assay protocol: Bioavailability studies in mice
# Format: in vivo
# Measurement conditions: mouse; C57BL/6 mice; single intravenous dose 1 mg/kg vs single oral dose 10 mg/kg; plasma LC-MS/MS
Some compounds, each annotated with its measured bioavailability.
State just the number; it will be interpreted in %.

What measured bioavailability goes with CCCCC1(CC)CN(c2ccccc2)c2cc(SC)c(O/C=C/C(=O)O)cc2S(=O)(=O)C1 (single isomer, unassigned) [Example 18] ?
35

Same read-out for CCCCC1(CC)CN(c2ccccc2)c2cc(Cl)c(O/C=C(\F)C(=O)O)cc2S(=O)(=O)C1 (single isomer, unassigned) [Example 48] ?
18

Also need CCCC[C@@]1(CC)CN(c2ccccc2)c2cc(SC)c(O/C=C(\F)C(=O)O)cc2S(=O)(=O)N1C (single isomer, unassigned) [Example 99] , thanks.
20

Another compound to look at: CCCCC1(CC)CN(c2ccccc2)c2cc(SC)c(O/C=C(\F)C(=O)O)cc2S(=O)(=O)C1 (single isomer, unassigned) [Example 43]
44

Input CCCCC1(CCCC)CN(c2ccccc2)c2cc(SC)c(O/C=C(\F)C(=O)O)cc2S(=O)(=O)C1 [Example 11]
27

Also check CCCCC1(CC)CN(c2ccccc2)c2cc(Br)c(O/C=C/C(=O)O)cc2S(=O)(=O)C1 (single isomer, unassigned) [Example 6]
100

Next up: CCC1(CC)CN(c2ccccc2)c2cc(SC)c(O/C=C(\F)C(=O)O)cc2S(=O)(=O)C1 [Example 44]
100

---

# Test target: Human ASBT (Homo sapiens)
# Construct: kept under Puromycin selection
# Assay protocol: ASBT (h/m) assay: 3H-taurocholic acid uptake in human ASBT-overexpressing cells
# Measurement conditions: 0.25 μM 3H-taurocholic acid and 5 μM cold taurocholic acid, 20 minutes, read-out: hASBT IC50
// reported pIC50 for each item listed
Scale for pIC50: -log10 of concentration given in mol/L; no unit attached.

Example results:
Molecule: CCCCC1(CC)CN(c2ccccc2)c2cc(SC)c(O/C=C/C(=O)O)cc2S(=O)(=O)C1 (racemic) [Example 16]
pIC50: 7.48
//
Molecule: CCCCC1(CC)CN(c2ccccc2)c2cc(Br)c(O/C=C/C(=O)O)cc2S(=O)(=O)N1 (stereo not shown)
pIC50: 6.80
//
Molecule: CCCCC1(CC)CN(c2ccccc2)c2cc(SC)c(O/C=C/C(=O)O)cc2S(=O)(=O)C1 (single isomer, unassigned) [Example 18]
pIC50: 7.72

Let us examine a further case.
Give pIC50 (Human ASBT (Homo sapiens)) of the following molecule: CCCC[C@]1(CC)CN(c2ccccc2)c2cc(NC)c(O/C=C/C(=O)O)cc2S(=O)(=O)C1 (single isomer, unassigned)
7.28

---

Here the recorded pIC50 is given for each entry.
# Test target: Human ASBT (Homo sapiens)
# Construct: expressed in transfected cells; kept under Puromycin selection
# Assay protocol: ASBT (h/m) assay: 3H-taurocholic acid uptake in human ASBT-overexpressing cells
# Type: cell-based
# Measurement conditions: 0.25 μM 3H-taurocholic acid and 5 μM cold taurocholic acid, 20 minutes, read-out: hASBT IC50
Expect pIC50 as a plain number equal to -log10 of the molar concentration.

Some molecules with recorded pIC50:
Molecule: CCCCC1(CC)CN(c2ccccc2)c2cc(Cl)c(O/C=C(\F)C(=O)O)cc2S(=O)(=O)C1 (racemic) [Example 46]
Observed: 7.01
//
Molecule: CCCCC1(CCCC)CN(c2ccc(O)cc2)c2cc(SC)c(O/C=C(\F)C(=O)O)cc2S(=O)(=O)C1
Observed: 7.77
//
Molecule: CCCCC1(CC)CN(c2ccccc2)c2cc(F)c(O/C=C(\F)C(=O)O)cc2S(=O)(=O)C1 (stereo not shown)
Observed: 7.82
//
Molecule: CCCCC1(CC)CN(c2ccccc2)c2cc(Br)c(O/C=C/C(=O)O)cc2S(=O)(=O)C1 (racemic) [Example 4]
Observed: 6.78
//
Molecule: CCCCC1(CC)CN(c2ccccc2)c2cc(SCC)c(O/C=C/C(=O)O)cc2S(=O)(=O)C1 (stereo not shown)
Observed: 6.81
//
Molecule: CCCCC1(CCCC)CN(c2ccccc2)c2cc(C#N)c(O/C=C/C(=O)O)cc2S(=O)(=O)C1
Observed: 6.06

Using the record for CCCCC1(CC)CN(c2ccccc2)c2cc(NC)c(O/C=C/C(=O)O)cc2S(=O)(=O)C1 (racemic) , report its pIC50.
7.39

---

# System: HepaRG cells
# Assay protocol: HepaRG-based assay: 3H-taurocholic acid uptake in differentiated HepaRG cells
# Format: cell-based
# Measurement conditions: Homo sapiens, HepaRG, 0.3 μM 3H-taurocholic acid and 7.5 μM cold taurocholic acid, 30 minutes
pIC50: −log10 of the molar value.
Could you label it YES if measured pIC50 is 6 or higher, and NO otherwise?

A selection of reference data follows.
Compound: CCCCC1(CCCC)CN(c2ccc(C(=O)NC(C)(C)C)cc2)c2cc(SC)c(O/C=C(\F)C(=O)O)cc2S(=O)(=O)C1 [Example 79]
Label: YES
//
Compound: CCCCC1(CC)CN(c2ccc(NC(=O)C(C)(C)C)cc2)c2cc(SC)c(O/C=C/C(=O)O)cc2S(=O)(=O)C1 (stereo not shown) [Example 34]
Label: YES
//
Compound: CCCCC1(CCCC)CN(c2ccc(NS(C)(=O)=O)cc2)c2cc(SC)c(O/C=C/C(=O)O)cc2S(=O)(=O)C1 [Example 10]
Label: NO
//
Compound: CCCCC1(CCCC)CN(c2ccc(NC(=O)C(C)(C)C)cc2)c2cc(SC)c(O/C=C(\F)C(=O)O)cc2S(=O)(=O)C1 [Example 28]
Label: YES
//
Compound: CCCCC1(CCCC)CN(c2ccccc2)c2cc(SC)c(O/C=C(\C)C(=O)O)cc2S(=O)(=O)N1 [Example 74]
Label: NO

Please find the next compound below.
Is reported pIC50 greater than or equal to 6 here: CCCCC1(CCCC)CN(c2ccc(Br)cc2)c2cc(SC)c(O/C=C/C(=O)O)cc2S(=O)(=O)C1 [Example 15]
NO
